Test system: CAF#7 (primary prostate cancer-associated fibroblasts of myCAF-like type)
Assay: drug sensitivity score (DSS2, normalised partial AUC of dose-response, 72 h CellTiter-Glo viability) (DSS (dimensionless)); higher = more sensitive (stronger growth inhibition / cytotoxicity); extreme values may be limits of the assay
PARAMETER: drug sensitivity score

1. CC[C@@H]1[C@H](F)C(=O)N[C@@H]1COc1nccc2cc(C(N)=O)c(OC)cc12 (tested concentration range 1-10000 nM)
0.1
2. CCN(CC)CCCC(C)Nc1ccnc2cc(Cl)ccc12 (stereo unspecified) [Chloroquine] (tested concentration range 10-100000 nM)
8.6
3. CC(C)(C)Cn1c(N)nc2ccc(-c3[nH]c(C(C)(C)C)nc3-c3ccc(F)cc3)nc21 [Ralimetinib] (tested concentration range 1-10000 nM)
0
4. COc1cc2ncnc(Nc3ccc(F)c(Cl)c3)c2cc1OCCCN1CCOCC1 [Gefitinib] (tested concentration range 1-10000 nM)
0.2
5. C=CCc1cccc(/C=N/NC(=O)CN2CCN(Cc3ccccc3)CC2)c1O [PAC-1] (tested concentration range 1-10000 nM)
2
6. OC[C@H]1O[C@@H](n2cnc3c2N=CNC[C@H]3O)C[C@@H]1O [Pentostatin] (tested concentration range 1-10000 nM)
0

----------
System: CAF#2 (primary prostate cancer-associated fibroblasts of iCAF-like type)
Experiment: drug sensitivity score (DSS2, normalised partial AUC of dose-response, 72 h CellTiter-Glo viability) (DSS (dimensionless)); higher = more sensitive (stronger growth inhibition / cytotoxicity); extreme values may be limits of the assay
PARAMETER: drug sensitivity score

1) N#CC1(c2ccc(NC(=O)c3cccnc3NCc3ccncc3)cc2)CCCC1 [Apatinib] (tested concentration range 1-10000 nM)
0
2) CN1CCN(c2ccc3nc(-c4c(N)c5c(F)cccc5[nH]c4=O)[nH]c3c2)CC1 [Dovitinib] (tested concentration range 1-10000 nM)
2.6
3) C/C=C1\NC(=O)[C@H]2CSSCC/C=C/[C@H](CC(=O)N[C@H](C(C)C)C(=O)N2)OC(=O)[C@H](C(C)C)NC1=O [Romidepsin] (tested concentration range 0.1-1000 nM)
23.4
4) CNS(=O)(=O)Nc1nccc(Cc2c(C)c3ccc(Oc4ncccn4)cc3oc2=O)c1F (tested concentration range 0.1-1000 nM)
0
5) Cc1ncc(-c2ccnc(Nc3ccc(S(C)(=O)=O)cc3)n2)n1C(C)C [AZD-5438] (tested concentration range 1-10000 nM)
3.9
6) C[C@@H](NC(=O)c1ncnc(N)c1Cl)c1ncc(C(=O)Nc2cc(C(F)(F)F)c(Cl)cn2)s1 [TAK-580] (tested concentration range 1-10000 nM)
0

----------
Tested on: CAF#5 (primary prostate cancer-associated fibroblasts of myCAF-like type)
Test: drug sensitivity score (DSS2, normalised partial AUC of dose-response, 72 h CellTiter-Glo viability) (DSS (dimensionless)); higher = more sensitive (stronger growth inhibition / cytotoxicity); extreme values may be limits of the assay
PARAMETER: drug sensitivity score

1. Cn1cc(C2=C(c3cn(C4CCN(Cc5ccccn5)CC4)c4ccccc34)C(=O)NC2=O)c2ccccc21 [Enzastaurin] (tested concentration range 1-10000 nM)
0
2. CC(C)Oc1ccc(-c2nn([C@@H](C)c3oc4ccc(F)cc4c(=O)c3-c3cccc(F)c3)c3ncnc(N)c23)cc1F [Umbralisib] (tested concentration range 0.2-2500 nM)
0
3. CC(O)(CS(=O)(=O)c1ccc(F)cc1)C(=O)Nc1ccc(C#N)c(C(F)(F)F)c1 (stereo unspecified) [Bicalutamide] (tested concentration range 1-10000 nM)
1.2
4. O=C(Nc1cc(Cl)cc2c1[nH]c1cnccc12)c1cccnc1 [PS-1145] (tested concentration range 2.5-25000 nM)
2.5
5. Cc1[nH]nc(C(F)(F)F)c1Cc1sc2c(c1C(=O)N1C[C@](C)(O)CO1)c(=O)n(C)c(=O)n2C(C)C [AZD3965] (tested concentration range 0.1-1000 nM)
0
6. Cc1ccc(-n2nc(C(C)(C)C)cc2NC(=O)Nc2ccc(OCCN3CCOCC3)c3ccccc23)cc1 [Doramapimod] (tested concentration range 1-10000 nM)
0.6
